Molecular target: T1, CRF2R
T1 sequence (Q13324 whole entry, species assumed, looked up): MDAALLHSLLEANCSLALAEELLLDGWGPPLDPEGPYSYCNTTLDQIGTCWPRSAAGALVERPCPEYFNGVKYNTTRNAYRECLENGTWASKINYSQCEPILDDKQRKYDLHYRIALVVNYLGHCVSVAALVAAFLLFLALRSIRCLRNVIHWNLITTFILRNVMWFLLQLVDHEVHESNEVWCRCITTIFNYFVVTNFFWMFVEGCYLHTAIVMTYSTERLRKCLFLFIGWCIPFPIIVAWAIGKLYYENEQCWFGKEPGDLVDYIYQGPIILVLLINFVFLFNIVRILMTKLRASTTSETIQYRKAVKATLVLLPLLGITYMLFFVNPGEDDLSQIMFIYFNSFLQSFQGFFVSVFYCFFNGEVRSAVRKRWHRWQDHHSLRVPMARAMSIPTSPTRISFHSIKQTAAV
Experiment: cell-based or functional assay
Ends that are not written are not given here.
Measured CRF2R EC50 values are reported for all entries that follow.
Just the number please, in nM, no unit attached.

Examples with their reported CRF2R EC50 follow.
{"columns": ["BINDER", "CRF2R EC50, nM"],
 "data": [
  ["ZGPPISIDLPYYLLRKMIEIEKQEKEKQQAANNRLLLDTI (C-terminal amide) [SEQ ID NO 40]", 6.95],
  ["ZGPPISIDLPIYLLRKMIEIEKQEKEKQQAANNRLLLDTI (C-terminal amide) [SEQ ID NO 79]", 22.3],
  ["IVLSLDVPIGLLQILLEQAKARAAREQATTNARILARV-NH2 [SEQ ID NO 127]", 7.79],
  ["IVLSLDVPIGLLQILLEMARAEQLAQQAHSNRKLMEII-NH2 [SEQ ID NO 164]", 2.24],
  ["IVLSLDVPIGLLQILLEQARQEAAREQATTNARILARV-NH2 [SEQ ID NO 123]", 3.49],
  ["ZGPPISIDLPFQLLRKMIEIEKQEKEKQQATTNARLLATV (C-terminal amide) [SEQ ID NO 21]", 8.46],
  ["DNPSLSIDLPFFLLRTLLELARTQSQRERAEQNAIIFASV-NH2 [SEQ ID NO 184]", 3.72],
  ["ZGPPISIDLPFQLLRKMIEIEKQEKEKQQATTNARILARV (C-terminal amide) [SEQ ID NO 148]", 9.45]
]}

Q. Entry under review: ZGPPISIDLPWQLLRKMIEIEKQEKEKQQAANNRLLLDTI (C-terminal amide) [SEQ ID NO 210] . Reported CRF2R EC50?
A. 10.2

Q. Look up CRF2R EC50 for this binder: SQEPPISLDLTFGLLREVLEMTKADQLAQQAHSNRKLLDIA-NH2 [SEQ ID NO 88]
A. 100
